tested_target: human CD46 expressed on 293 cells (human) (UniProt P15529)
method_summary: FACS, 293 cells expressing human CD46, pH 6.0
assay_metric: EC50 (µg/mL)
Value expressed in µg/mL; do not type the unit.

Q) Note down EC50 recorded for BA-133-04-02 (antibody, V domains shown) VH: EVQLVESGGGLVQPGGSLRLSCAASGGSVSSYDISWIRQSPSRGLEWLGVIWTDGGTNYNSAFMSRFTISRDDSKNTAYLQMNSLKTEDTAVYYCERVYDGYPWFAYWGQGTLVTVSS VL: AIQLTQSPSSLSASVGDRVTITCRASQGIANYLNWYLQKPGQSPQLLIYYTSSLHSGVPDRFSGSGSGTDFTLKISRVEAEDVGVYYCQQYIKLPWTFGQGTKVEIK
A) 0.32
